# Test Target: Recombinant neutrophil collagenase (Homo sapiens)
# Sequence (P22894 101-467): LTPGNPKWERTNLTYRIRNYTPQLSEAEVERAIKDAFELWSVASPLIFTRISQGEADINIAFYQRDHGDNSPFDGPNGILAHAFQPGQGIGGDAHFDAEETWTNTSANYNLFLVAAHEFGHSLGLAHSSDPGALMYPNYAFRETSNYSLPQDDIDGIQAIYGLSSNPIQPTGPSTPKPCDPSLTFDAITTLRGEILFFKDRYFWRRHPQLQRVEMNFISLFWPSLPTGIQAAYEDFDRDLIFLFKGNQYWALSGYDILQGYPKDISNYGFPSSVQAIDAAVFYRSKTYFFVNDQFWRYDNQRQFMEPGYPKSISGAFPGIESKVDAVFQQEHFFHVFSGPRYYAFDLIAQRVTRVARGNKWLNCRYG
# Protocol: inhibition of recombinant neutrophil collagenase (Table 2)
# Condition Details: read-out: NC inhibitory activity
Assay Metric: Ki (nM)

Consider the reported Ki for these compounds:
Name the reported Ki value associated with the compound CC(C)C[C@H](CC(=O)O)C(=O)N[C@@H](Cc1c[nH]c2ccccc12)C(=O)NCCc1ccccc1 [Compound 58]
26

Sample CC(C)CC(CC(=O)NO)C(=O)N[C@@H](Cc1c[nH]c2ccccc12)C(=O)NCCCCCCNC(=O)OCc1ccccc1 (stereo partly shown) [Compound 27A] — what was its Ki?
21

Returns the measured Ki for the input compound. Input: C[C@H](NC(=O)[C@H](Cc1c[nH]c2ccccc12)NC(=O)[C@@H](CC(=O)NO)NC(=O)OC(C)(C)C)c1ccccc1 [Compound 82]
3260

Fill blank: measured Ki of the compound CC(C)C[C@H](CC(=O)O)C(=O)N[C@@H](Cc1c[nH]c2ccccc12)C(=O)NCCc1ccc(S(N)(=O)=O)cc1 [Compound 59] is ____.
85

Suppose we examine the compound CNC(=O)[C@H](Cc1c[nH]c2ccccc12)N(C)C(=O)C(CC(=O)NO)CC(C)C (single isomer, unassigned) [Compound 9A] ; what Ki value has been reported?
29

P: CCCCCCCCCCCCNC(=O)[C@H](Cc1c[nH]c2ccccc12)NC(=O)C(CC(=O)NO)CC(C)C (single isomer, unassigned) [Compound 19A]
Q: CC(C)C[C@H](CC(=O)O)C(=O)N[C@@H](Cc1c[nH]c2ccccc12)C(=O)NCCCN1CCOCC1 [Compound 48]
R: CC(C)C[C@H](CC(=O)O)C(=O)N[C@@H](Cc1c[nH]c2ccccc12)C(=O)NCc1ccccc1 [Compound 57]
S: CC(C)C[C@H](CC(=O)NO)C(=O)N[C@@H](Cc1c[nH]c2ccccc12)C(=O)NCCN1CCOCC1 [Compound 52]
Ascending by Ki, please: list the compounds accordingly. List the labels in the requested order.
S, P, R, Q

----------
# Test Target: Human gingival fibrblast collagenase (Homo sapiens, UniProt P03956)
# Construct: endogenous in cells
# Protocol: inhibition of human gingival fibroblast collagenase (Table 2)
# Condition Details: read-out: HGFC inhibitory activity
pKi: −log10 of the molar value.
Assay Metric: pKi

Check out these entries, answers already filled in.
Which pKi value is on record for `CC(C)C[C@H](CC(=O)NO)C(=O)N[C@@H](Cc1c[nH]c2ccccc12)C(=O)NCCN1CCOCC1` ?
9.22

Which pKi value is on record for COC(=O)CC(CC(C)C)C(=O)N[C@@H](Cc1c[nH]c2ccccc12)C(=O)N[C@@H](C)c1ccccc1 (single isomer, unassigned) [Compound 20A] ?
9.70

Return reported pKi; argument: CCCCCNC(=O)[C@H](Cc1c[nH]c2ccccc12)NC(=O)C(CC(=O)NO)CC(C)C (some centres unmarked) [Compound 15A]
9.52

Look at this compound and give its reported pKi. CC(C)CC(CC(=O)NO)C(=O)N[C@@H](Cc1c[nH]c2ccccc12)C(=O)NC1CCCCC1 (some centres unmarked) [Compound 28A]
10.00

Sample CC(C)CC(CC(=O)NO)C(=O)N[C@@H](Cc1c[nH]c2ccccc12)C(=O)NCCO (single isomer, unassigned) [Compound 13A] — what was its pKi?
9.00

P: C[C@H](NC(=O)[C@H](Cc1c[nH]c2ccccc12)NC(=O)[C@@H](CC(=O)O)NC(=O)OC(C)(C)C)c1ccccc1
Q: C[C@H](NC(=O)[C@H](Cc1c[nH]c2ccccc12)NC(=O)[C@@H](CC(=O)NO)NC(=O)OC(C)(C)C)c1ccccc1
Parameter metric = pKi. Return the lower-valued option from P and Q . Response format: the label of the selected entry.
P
(P: 6.30, Q: 7.10)

I: CC(C)C[C@H](CC(=O)O)C(=O)N[C@@H](Cc1c[nH]c2ccccc12)C(=O)NCc1ccccc1
II: C[C@H](NC(=O)[C@H](Cc1c[nH]c2ccccc12)NC(=O)[C@@H](CCC(=O)O)NC(=O)OC(C)(C)C)c1ccccc1
Given the two records I and II , choose the one whose pKi value is lower. Kindly state the label of the option you pick.
II
(II: 5.70, I: 8.66)

1: CC(C)C[C@H](CC(=O)O)C(=O)N[C@@H](Cc1c[nH]c2ccccc12)C(=O)NCCN1CCOCC1
2: CNC(=O)[C@H](Cc1ccc2ccccc2c1)NC(=O)C(CC(=O)NO)CC(C)C (single isomer, unassigned) [Compound 11A]
3: CNC(=O)[C@H](Cc1c[nH]c2ccccc12)N(C)C(=O)C(CC(=O)NO)CC(C)C (single isomer, unassigned)
Arrange the 3 compounds from largest to smallest pKi. To answer, write out the labels according to the requested order.
2, 3, 1
(2: 9.52, 3: 8.30, 1: 7.49)

P: CC(C)CC(CC(=O)NO)C(=O)N[C@@H](Cc1c[nH]c2ccccc12)C(=O)NCCCCCCNC(=O)OCc1ccccc1 (some centres unmarked) [Compound 27A]
Q: C[C@H](NC(=O)[C@H](Cc1c[nH]c2ccccc12)NC(=O)[C@@H](CCC(=O)NO)NC(=O)OC(C)(C)C)c1ccccc1
Lab log: flag the item ( P or Q ) with the smaller pKi figure. Indicate your choice by writing its label.
Q

----------
# Test Target: Natural human 72kD gelatinase (Homo sapiens)
# Sequence (P08253 110-660): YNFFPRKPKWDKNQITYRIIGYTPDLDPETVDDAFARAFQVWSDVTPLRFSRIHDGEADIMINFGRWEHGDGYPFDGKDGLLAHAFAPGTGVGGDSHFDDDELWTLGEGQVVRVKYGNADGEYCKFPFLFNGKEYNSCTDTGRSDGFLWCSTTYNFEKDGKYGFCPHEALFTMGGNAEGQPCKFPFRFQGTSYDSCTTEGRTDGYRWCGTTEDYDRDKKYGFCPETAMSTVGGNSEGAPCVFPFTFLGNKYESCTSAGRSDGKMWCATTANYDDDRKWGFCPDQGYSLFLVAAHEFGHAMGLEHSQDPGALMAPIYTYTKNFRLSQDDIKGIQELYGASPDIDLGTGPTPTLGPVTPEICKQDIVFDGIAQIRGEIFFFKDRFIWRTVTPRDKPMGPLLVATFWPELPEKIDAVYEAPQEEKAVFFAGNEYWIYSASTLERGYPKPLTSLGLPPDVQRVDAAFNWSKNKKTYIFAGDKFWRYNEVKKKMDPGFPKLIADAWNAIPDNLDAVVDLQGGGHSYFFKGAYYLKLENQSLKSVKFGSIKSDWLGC
# Protocol: inhibition of 72kD gelatinase (Table 2)
# Type: biochemical
# Condition Details: read-out: 72kD G inhibitory activity
Assay Metric: Ki (nM)

Known results for molecules:
Give its Ki value. Item: CC(C)C[C@H](CC(=O)NO)C(=O)N[C@@H](Cc1c[nH]c2ccccc12)C(=O)NCCN1CCOCC1 [Compound 52]
0.81

What value of Ki has been recorded for this entry: CC(C)CC(CC(=O)NO)C(=O)N[C@@H](Cc1c[nH]c2ccccc12)C(=O)NCCCCCCNC(=O)OCc1ccccc1 (some centres unmarked) [Compound 27A]
2.9

P: C[C@H](NC(=O)[C@H](Cc1c[nH]c2ccccc12)NC(=O)[C@@H](CC(=O)NO)NC(=O)OC(C)(C)C)c1ccccc1 [Compound 82]
Q: CC(C)C[C@H](CC(=O)O)C(=O)N[C@@H](Cc1c[nH]c2ccccc12)C(=O)NCc1ccccc1 [Compound 57]
R: CCCCCCCCCCCCNC(=O)[C@H](Cc1c[nH]c2ccccc12)NC(=O)C(CC(=O)NO)CC(C)C (single isomer, unassigned) [Compound 19A]
S: CC(C)C[C@H](CC(=O)O)C(=O)N[C@@H](Cc1c[nH]c2ccccc12)C(=O)NCCc1ccc(S(N)(=O)=O)cc1 [Compound 59]
T: CC(C)CC(CC(=O)NO)C(=O)N[C@@H](Cc1c[nH]c2ccccc12)C(=O)NC1CCCCC1 (some centres unmarked) [Compound 28A]
Order each entry by recorded Ki, climbing from the minimum. Rank them, then answer with their labels in that order.
R, T, Q, S, P

----------
# Lookup of reported pKi keyed by entry
# Test Target: human skin fibroblast collagenase (Homo sapiens, UniProt P03956)
# Construct: endogenous in cells
# Sequence (P03956 100-469): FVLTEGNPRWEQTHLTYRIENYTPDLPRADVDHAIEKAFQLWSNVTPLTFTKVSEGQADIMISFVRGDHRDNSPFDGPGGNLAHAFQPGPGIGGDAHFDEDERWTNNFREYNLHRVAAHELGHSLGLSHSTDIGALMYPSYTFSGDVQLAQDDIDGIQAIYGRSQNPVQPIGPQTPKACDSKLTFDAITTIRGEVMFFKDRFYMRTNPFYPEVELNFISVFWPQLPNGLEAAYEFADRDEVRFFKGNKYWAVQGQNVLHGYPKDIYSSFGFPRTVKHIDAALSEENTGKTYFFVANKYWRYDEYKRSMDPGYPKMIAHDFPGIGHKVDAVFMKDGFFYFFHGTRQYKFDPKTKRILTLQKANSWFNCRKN
# Protocol: inhibition of collagenase, synthetic thiol ester substrate, Ki (Table 1)
pKi: −log10 of the molar value.

// returns reported pKi for input CNC(=O)[C@H](Cc1c[nH]c2ccccc12)NC(=O)[C@@H]1CCCC[C@H]1C(=O)O (mixture of isomers)
< 5.00

Give the measured pKi of CC(C)CC(CC(=O)O)C(=O)N[C@@H](Cc1c[nH]c2ccccc12)C(=O)NCCCCCCN (stereo partly drawn) [Compound 32A] .
< 5.00

Which value of pKi has been reported for CC(C)CC(CC(=O)NO)C(=O)N[C@@H](Cc1c[nH]c2ccccc12)C(=O)N1CCCCC1 (stereo partly drawn) [17A,B] in the records?
6.70

----------
What follows is a collection of Ki values obtained with Stromelysin (Homo sapiens, UniProt P08254).
Sequence (P08254 100-477): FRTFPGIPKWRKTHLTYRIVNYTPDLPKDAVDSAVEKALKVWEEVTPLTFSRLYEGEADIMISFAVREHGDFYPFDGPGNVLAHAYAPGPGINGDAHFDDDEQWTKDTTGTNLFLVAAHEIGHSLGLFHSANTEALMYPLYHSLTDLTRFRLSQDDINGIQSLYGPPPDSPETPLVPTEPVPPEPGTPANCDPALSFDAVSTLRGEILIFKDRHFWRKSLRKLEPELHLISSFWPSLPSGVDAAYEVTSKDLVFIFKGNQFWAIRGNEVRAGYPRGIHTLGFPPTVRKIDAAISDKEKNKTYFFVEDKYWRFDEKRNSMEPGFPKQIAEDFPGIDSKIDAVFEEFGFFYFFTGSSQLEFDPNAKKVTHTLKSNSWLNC
Assay Metric: Ki (µM)

Some solved entries appear below for comparison.
So what Ki did CC(C)CC(CC(=O)NO)C(=O)N[C@@H](Cc1c[nH]c2ccccc12)C(=O)NCCCCCCNC(=O)OCc1ccccc1 (stereo partly shown) [Compound 27A] get with Stromelysin (Homo sapiens, UniProt P08254)?
0.094

Enter reported Ki observed with Stromelysin (Homo sapiens, UniProt P08254) for `CNC(=O)[C@H](Cc1c[nH]c2ccccc12)NC(=O)[C@@H](CC(=O)NO)CC(C)C`
0.027

1: CCCCCCCCCCCCNC(=O)[C@H](Cc1c[nH]c2ccccc12)NC(=O)C(CC(=O)NO)CC(C)C (single isomer, unassigned) [Compound 19A]
2: CC(C)CC(CC(=O)NO)C(=O)N[C@@H](Cc1c[nH]c2ccccc12)C(=O)NC1CCCCC1 (stereo partly shown) [Compound 28A]
Pick one, 1 or 2 : lowest reported Ki. Identify your selection by its label.
1

----------
# Test Target: Stromelysin (Homo sapiens)
pKi: −log10 of the molar value.
Assay Metric: pKi

a: CC(C)C[C@H](CC(=O)O)C(=O)N[C@@H](Cc1c[nH]c2ccccc12)C(=O)NCc1ccccc1
b: CC(C)C[C@H](CC(=O)O)C(=O)N[C@@H](Cc1c[nH]c2ccccc12)C(=O)NCCc1ccccc1
Please state the entry with greater pKi among a and b . Label of pick, please.
a
(a: 5.29, b: 4.98)

Recorded values, source patent US5773438A.
